Reference source for all entries: PubChem BioAssay AID248

system: L1210 leukemia ip in BDF1 mice, survival T/C; experiment: NCI In Vivo Anticancer Drug Screen. Data for tumor model L1210 Leukemia (intraperitoneal) in B6D2F1 (BDF1) mice; settings: endpoint: mean survival time; dose: 100.0 mg/kg/injection; schedule: Q04DX003 (ip); vehicle: Klucel (hydroxypropylcellulose) (HPC); higher = longer survival
Inconclusive results and toxic doses are left out.
assay-readout: T/C

> print(dat)
                                   compound                              assay.target  assay.readout   recorded.result
1     O=C(c1ccc(Cl)cc1)c1cccc[n+]1Cc1ccccc1  L1210 leukemia ip in BDF1 mice, survival T/C            T/C   97 % of control
2  CC(=O)NN(c1ccc([N+](=O)[O-])cc1)c1ccc([N+](=O)[O-])cc1  L1210 leukemia ip in BDF1 mice, survival T/C            T/C   93 % of control
3                          c1cnc2[nH]cnc2n1  L1210 leukemia ip in BDF1 mice, survival T/C            T/C  100 % of control
4            O=C1N(c2nncs2)CCN1[N+](=O)[O-]  L1210 leukemia ip in BDF1 mice, survival T/C            T/C   95 % of control

-- ask With L1210 leukemia ip in BDF1 mice, survival T/C as the test system, provide measured T/C for this compound: CCOC(=O)c1cnc(SC)nc1Nc1cccc([N+](=O)[O-])c1
-- reply 97 % of control

-- ask With L1210 leukemia ip in BDF1 mice, survival T/C as the test system, provide measured T/C for this compound: CC(C(=O)c1ccc(Cl)cc1)C(O)(C(F)(F)F)C(F)(F)F (stereo not drawn)
-- reply 103 % of control

-- ask With L1210 leukemia ip in BDF1 mice, survival T/C as the test system, provide measured T/C for this compound: C/C(=N\O)C(=O)c1ccccc1
-- reply 107 % of control

-- ask With L1210 leukemia ip in BDF1 mice, survival T/C as the test system, provide measured T/C for this compound: COc1ccc(C(=O)O)c(CC#N)c1
-- reply 97 % of control

-- ask With L1210 leukemia ip in BDF1 mice, survival T/C as the test system, provide measured T/C for this compound: CCCNC(=O)OC/C=C\CC(Cl)(Cl)Cl
-- reply 87 % of control

-- ask With L1210 leukemia ip in BDF1 mice, survival T/C as the test system, provide measured T/C for this compound: CC(C)NNC(C)Cc1ccccc1 (stereo not drawn)
-- reply 98 % of control

-- ask With L1210 leukemia ip in BDF1 mice, survival T/C as the test system, provide measured T/C for this compound: COc1ccc(/C=C(\NC(C)=O)C(=O)O)cc1
-- reply 100 % of control

-- ask With L1210 leukemia ip in BDF1 mice, survival T/C as the test system, provide measured T/C for this compound: c1ccc([CH2][Sn]([c]2ccccc2)([c]2ccccc2)[c]2ccccc2)cc1
-- reply 101 % of control

-- ask With L1210 leukemia ip in BDF1 mice, survival T/C as the test system, provide measured T/C for this compound: CC(C)N1C(=O)OC2(CCN(CCCSc3ccc(F)cc3)CC2)C1=O
-- reply 103 % of control
